# credit: the Immune Epitope Database (IEDB)

- testTarget: HLA-C*14:02
- procedureText: IEDB peptide-MHC binding, purified MHC/direct/fluorescence; filed as Kd, often an IC50 or EC50 that approximates it; bounds were set here for any values at or beyond the usual limits of such assays
- appliedConditions: source organism: Vibrio vulnificus YJ016

>  <seqString>
AYFLEAQEM

>  <Kd>
≤ 1 nM

$$$$

====

Known log10 Kd of a selection of sequences
- testTarget: HLA-B*07:02
- procedureText: IEDB peptide-MHC binding, purified MHC/competitive/radioactivity; filed as Kd, often an IC50 or EC50 that approximates it; bounds were set here for any values at or beyond the usual limits of such assays
- appliedConditions: source organism: Vaccinia virus WR
metricName: log10 Kd (log10 of the value in nM)

>  <seqString>
LPFYETLPEL

>  <testTarget>
HLA-B*07:02

>  <measured>
1.90

$$$$
>  <seqString>
VPHSVFIASA

>  <testTarget>
HLA-B*07:02

>  <measured>
2.72

$$$$
>  <seqString>
KPYTAGNKV

>  <testTarget>
HLA-B*07:02

>  <measured>
1.56

$$$$
>  <seqString>
SPETQQMII

>  <testTarget>
HLA-B*07:02

>  <measured>
2.61

$$$$
>  <seqString>
NPTKYIRWKL

>  <testTarget>
HLA-B*07:02

>  <measured>
1.43

$$$$

====

- testTarget: HLA-A*11:01
- procedureText: IEDB peptide-MHC binding, purified MHC/direct/fluorescence; filed as Kd, often an IC50 or EC50 that approximates it; bounds were set here for any values at or beyond the usual limits of such assays
- appliedConditions: source organism: Pseudomonas tolaasii
metricName: Kd

>  <seqString>
AEGTGITHL

>  <testTarget>
HLA-A*11:01

>  <measured>
≥ 20 µM

$$$$

====

- testTarget: HLA-B*51:01
- procedureText: IEDB peptide-MHC binding, purified MHC/competitive/fluorescence; filed as Kd, often an IC50 or EC50 that approximates it; bounds were set here for any values at or beyond the usual limits of such assays
- appliedConditions: source organism: Bacillus anthracis str. 'Ames Ancestor'
metricName: Kd

>  <seqString>
MTQNISNDK

>  <testTarget>
HLA-B*51:01

>  <measured>
≥ 20 µM

$$$$

====

- testTarget: HLA-A*26:01
- procedureText: IEDB peptide-MHC binding, purified MHC/competitive/radioactivity; filed as Kd, often an IC50 or EC50 that approximates it; bounds were set here for any values at or beyond the usual limits of such assays
- appliedConditions: source organism: Dengue virus 4 Philippines/H241/1956
Known Kd of a selection of sequences

>  <seqString>
ENPYRTWAY

>  <endpointUnit>
µM

>  <Kd>
4.38

$$$$
>  <seqString>
EKLRIKGMSY

>  <endpointUnit>
µM

>  <Kd>
4.65

$$$$
>  <seqString>
ESWILRNPGF

>  <endpointUnit>
µM

>  <Kd>
9.73

$$$$

====

- testTarget: HLA-A*68:02
- procedureText: IEDB peptide-MHC binding, purified MHC/direct/fluorescence; filed as Kd, often an IC50 or EC50 that approximates it; bounds were set here for any values at or beyond the usual limits of such assays
- appliedConditions: source organism: Mammarenavirus lassaense
pKd: −log10 of the molar value.
metricName: pKd

>  <seqString>
GYAWIDFDI

>  <metricName>
pKd

>  <measured>
≤ 4.70

$$$$

====

- testTarget: HLA-B*27:05
- procedureText: IEDB peptide-MHC binding, purified MHC/direct/fluorescence; filed as Kd, often an IC50 or EC50 that approximates it; bounds were set here for any values at or beyond the usual limits of such assays
- appliedConditions: source organism: Lyssavirus rabies
pKd: −log10 of the molar value.

>  <seqString>
RQMKSGGRF

>  <pKd>
6.56

$$$$

====

- testTarget: HLA-B*15:01
- procedureText: IEDB peptide-MHC binding, purified MHC/direct/fluorescence; filed as Kd, often an IC50 or EC50 that approximates it; bounds were set here for any values at or beyond the usual limits of such assays
- appliedConditions: source organism: Rickettsia bellii OSU 85-389

>  <seqString>
EDFEIFYNL

>  <Kd>
≥ 20 µM

$$$$

====

- testTarget: HLA-B*15:01
- procedureText: IEDB peptide-MHC binding, purified MHC/direct/fluorescence; filed as Kd, often an IC50 or EC50 that approximates it; bounds were set here for any values at or beyond the usual limits of such assays
- appliedConditions: source organism: Cowpox virus
pKd: −log10 of the molar value.

>  <seqString>
YPPPRYITV

>  <pKd>
≤ 4.70

$$$$

====

- testTarget: HLA-B*08:01
- procedureText: IEDB peptide-MHC binding, purified MHC/direct/fluorescence; filed as Kd, often an IC50 or EC50 that approximates it; bounds were set here for any values at or beyond the usual limits of such assays
- appliedConditions: source organism: Aggregatibacter actinomycetemcomitans
pKd: −log10 of the molar value.
metricName: pKd

>  <seqString>
TTRAWFDKK

>  <testTarget>
HLA-B*08:01

>  <metricName>
pKd

>  <measured>
≤ 4.70

$$$$

====

- testTarget: HLA-A*01:01
- procedureText: IEDB peptide-MHC binding, purified MHC/direct/fluorescence; filed as Kd, often an IC50 or EC50 that approximates it; bounds were set here for any values at or beyond the usual limits of such assays
- appliedConditions: source organism: Sudan ebolavirus - Uganda (2000)
pKd: −log10 of the molar value.

>  <seqString>
LTDRELLLL

>  <pKd>
6.59

$$$$

====

- testTarget: HLA-A*02:01
- procedureText: IEDB peptide-MHC binding, purified MHC/competitive/fluorescence; filed as Kd, often an IC50 or EC50 that approximates it; bounds were set here for any values at or beyond the usual limits of such assays
- appliedConditions: source organism: Variola virus
pKd: −log10 of the molar value.
metricName: pKd

>  <seqString>
ETNDLVTNV

>  <measured>
5.49

$$$$
>  <seqString>
EIQLKIDKL

>  <measured>
5.45

$$$$
>  <seqString>
IIIPFIAYFV

>  <measured>
7.30

$$$$

====

- testTarget: HLA-A*24:03
- procedureText: IEDB peptide-MHC binding, purified MHC/direct/fluorescence; filed as Kd, often an IC50 or EC50 that approximates it; bounds were set here for any values at or beyond the usual limits of such assays
- appliedConditions: source organism: Encephalitozoon cuniculi GB-M1

>  <seqString>
MPFDPSELV

>  <Kd>
≥ 20 µM

$$$$

====

- testTarget: HLA-A*32:07
- procedureText: IEDB peptide-MHC binding, purified MHC/competitive/fluorescence; filed as Kd, often an IC50 or EC50 that approximates it; bounds were set here for any values at or beyond the usual limits of such assays
- appliedConditions: source organism: Giardia lamblia ATCC 50803
pKd: −log10 of the molar value.

>  <seqString>
YTFFFTQYF

>  <pKd>
7.46

$$$$

====

- testTarget: HLA-B*46:01
- procedureText: IEDB peptide-MHC binding, purified MHC/competitive/fluorescence; filed as Kd, often an IC50 or EC50 that approximates it; bounds were set here for any values at or beyond the usual limits of such assays
- appliedConditions: source organism: Entamoeba histolytica HM-1:IMSS
metricName: Kd

>  <seqString>
YLHIHPFKI

>  <measured>
≥ 20 µM

$$$$

====

- testTarget: HLA-A*26:01
- procedureText: IEDB peptide-MHC binding, purified MHC/competitive/fluorescence; filed as Kd, often an IC50 or EC50 that approximates it; bounds were set here for any values at or beyond the usual limits of such assays
- appliedConditions: source organism: Orthohantavirus andesense
pKd: −log10 of the molar value.

>  <seqString>
LEEDIQHFL

>  <pKd>
≤ 4.70

$$$$
>  <seqString>
KPKALSEAF

>  <pKd>
≤ 4.70

$$$$

====

- testTarget: HLA-B*07:02
- procedureText: IEDB peptide-MHC binding, purified MHC/direct/fluorescence; filed as Kd, often an IC50 or EC50 that approximates it; bounds were set here for any values at or beyond the usual limits of such assays
- appliedConditions: source organism: Giardia lamblia ATCC 50803
pKd: −log10 of the molar value.

>  <seqString>
SDRLHHDPL

>  <testTarget>
HLA-B*07:02

>  <pKd>
≤ 4.70

$$$$
>  <seqString>
WSFLEDRVY

>  <testTarget>
HLA-B*07:02

>  <pKd>
≤ 4.70

$$$$
>  <seqString>
QTSTLYDFY

>  <testTarget>
HLA-B*07:02

>  <pKd>
≤ 4.70

$$$$

====

- testTarget: HLA-C*04:01
- procedureText: IEDB peptide-MHC binding, purified MHC/direct/fluorescence; filed as Kd, often an IC50 or EC50 that approximates it; bounds were set here for any values at or beyond the usual limits of such assays
- appliedConditions: source organism: Vibrio vulnificus YJ016
pKd: −log10 of the molar value.
metricName: pKd

>  <seqString>
AYFLEAQEM

>  <testTarget>
HLA-C*04:01

>  <metricName>
pKd

>  <measured>
≤ 4.70

$$$$
